- System: RXF 393
- methodSummary: NCI tumour cell line growth inhibition, 48 h
Calls of active or inactive are those of the source. Rule as the data show it: active = GI50 up to about 1.1 µM and inactive = higher. Where a SMILES comes first, the peptide text is derived from it. [ ]: non-standard residue; d: D form. The star is where a group is joined. ξ: configuration not given here. ξNMe2Val = CC(C)C(C(=O)*)N(C)C; NMeV = CN[CH](C(=O)O)C(C)C; NHBn = c1ccc(CN*)cc1
Entry note: the call must match one of YES (active), NO (inactive)

These recorded examples may help you get a feel for the data.
1) COC(=O)C(C(=O)C(=O)Nc1ccc(Br)cc1)c1nc2ccc(Cl)cc2nc1O (centres undefined) : NO
2) COC(=O)[C@@]12C=CC(=O)[C@H]3C[C@@H](C(C(C)C)C1)[C@]32OC (some centres undefined) : NO
3) Cc1c(S(=O)(=O)O)ccc(/N=N/c2c(O)c(C(=O)O)cc3ccccc23)c1Cl : NO

Alright, here's another compound for you.
Inquiry: In this assay, the call recorded for CC(C)C(NC(=O)C(C(C)C)N(C)C)C(=O)N(C)C(C(=O)N1CCCC1C(=O)N1CCCC1C(=O)NCc1ccccc1)C(C)C (centres undefined) (ξNMe2Val-V[NMeV]PP-NHBn; configuration not given here) was what?
Reply text: YES

====

- Test system: NCI/ADR-RES
- methodSummary: NCI tumour cell line growth inhibition, 48 h
Active and inactive are the calls of the source. Cut-off read from the data, not from the text of the source: active = GI50 up to about 1.1 µM and inactive = higher. Where a SMILES comes first, the peptide text is derived from it. [ ]: non-standard residue; d: D form. The star is where a group is joined. ξ: configuration not given here. ξNMe2Val = CC(C)C(C(=O)*)N(C)C; NMeV = CN[CH](C(=O)O)C(C)C; NHBn = c1ccc(CN*)cc1; CH2Cl = ClC*
Just give me one of these, please: active, inactive

These recorded examples may help you get a feel for the data.
1) CCCC(=O)NC(C(=O)OCC)(N1CCOCC1)C(F)(F)F (stereo not drawn) : inactive
2) CC(=O)NC(CC(C)C)C(=O)NC(Cc1ccccc1)C(=O)CCl (stereo not drawn) (Ac-Leu-Phe-CH2Cl; configuration not given here) : inactive
3) CC(=O)N1c2ccccc2C23CCN(C)CC4C(C)OCC(C4CC2=O)C13 (stereo not drawn) : inactive

Inquiry: Just curious, what result did CCOP(=O)(OCC)/C(C#N)=C/c1ncc[nH]1 get here?
Reply text: inactive

Inquiry: Tell me the assay call for CC(C)C(NC(=O)C(C(C)C)N(C)C)C(=O)N(C)C(C(=O)N1CCCC1C(=O)N1CCCC1C(=O)NCc1ccccc1)C(C)C (stereo not drawn) (ξNMe2Val-V[NMeV]PP-NHBn; configuration not given here) please.
Reply text: active

Inquiry: Which outcome did this test record for the compound O=C(Nc1nnc(-c2c(Cl)c(Cl)c(Cl)c(Cl)c2-c2nc3cc(C(=O)c4ccccc4)ccc3[nH]2)o1)c1ccccc1 ?
Reply text: inactive

Inquiry: Which result was noted for this compound in the test: COC(=O)[C@@H](Cc1ccccc1)N1O[C@]12CCCC[C@@H]2NC(=O)OC(C)(C)C (stereo partly drawn)
Reply text: inactive

Inquiry: # fetch the recorded call for CCc1nc(N)nc(N)c1-c1ccc(Cl)c(N=[N+]=[N-])c1 here
Reply text: inactive

====

- System: NCI-H522
- methodSummary: NCI tumour cell line growth inhibition, 48 h
Calls of active or inactive are those of the source. Rule as the data show it: active = GI50 up to about 1.1 µM and inactive = higher.
Permitted responses: Y for active, N for inactive

1) COC(=O)[C@@H]1CN(C(=O)CCc2ccccc2)C(=O)N1 : N
2) c1ccc(C(CCN2CCCC2)c2ccccn2)cc1 (stereo not given) : N
3) COc1ccc(CCn2cncn2)cc1 : N
4) CC1NC(=O)C(C)C(c2ccccc2)N(N=O)C1c1ccccc1 (stereo not given) : N
5) O=c1oc2ccccc2cc1/C=N/N1C(=S)N(c2ccccc2)C(=N\c2ccccc2)/C1=N/c1ccccc1 : N

Inquiry: Which outcome did this test record for the compound Nc1c(-c2ccc(Cl)c(Cl)c2)c2ccc([N+](=O)[O-])cc2c(=O)n1-c1nc2ccccc2s1 ?
Reply text: Y

Inquiry: // param item: COC(=O)C1=C(C(=O)OC)N(c2ccncc2)C(c2ccco2)=CC1c1ccccc1[N+](=O)[O-] (stereo not given) ; yields the recorded call
Reply text: N

Inquiry: Status in this test for COC(=O)[C@@H](Cc1ccccc1)N1O[C@]12CCCC[C@@H]2NC(=O)OC(C)(C)C (stereo not given in full) ?
Reply text: N

Inquiry: Outcome logged for COCCOc1cc(C)cc(/C=C(C)/C=C/C2=C(C)CCCC2(C)C)n1 in this assay:
Reply text: N

Inquiry: Check the results log: what was the call for COc1cccc(N2N=C3c4ccccc4-n4c(nc5ccccc54)C3C2N)c1 (stereo not given) ?
Reply text: N

====

- Tested on: A549
- methodSummary: NCI tumour cell line growth inhibition, 48 h
The source made the active and inactive calls. Cut-off read from the data, not from the text of the source: active = GI50 up to about 1.1 µM and inactive = higher.
Hello, when you answer, please use one of the following outcomes: TRUE = active, FALSE = inactive

1) C=C1C2CCCC1C1(S(C)(=O)=O)CCCCC21O (stereo unspecified) : FALSE

Inquiry: In this assay, the call recorded for COC(=O)c1ccccc1C1CN=NC12Cc1c(C)ccc(C)c1C2=O (stereo unspecified) was what?
Reply text: FALSE

====

- System: UACC-62
- methodSummary: NCI tumour cell line growth inhibition, 48 h
Calls of active or inactive are those of the source. Rule as the data show it: active = GI50 up to about 1.1 µM and inactive = higher.
Entry note: the call must match one of active, inactive

1. Cc1n(Cc2ccccc2)c2c([n+]1C)C(=O)c1ccccc1C2=O : active
2. C[C@@H]1O[C@@H](O[C@H]2CC[C@]3(C=O)[C@H]4CC[C@]5(C)[C@@H](C6=CC(=O)OC6)CC[C@]5(O)[C@@H]4CC[C@]3(O)C2)[C@H](O)[C@H](O)[C@H]1O : active
3. O=C1c2ccccc2NC(=O)C2C1C(c1ccccc1)CC2(O)c1ccccc1 (centres undefined) : inactive

// switching to the query molecule
Inquiry: Assay outcome for N#Cc1cc2c(cc1C#N)SCCSCCCSCCS2 : what was it?
Reply text: inactive

====

- Test system: SF-539
- methodSummary: NCI tumour cell line growth inhibition, 48 h
The source made the active and inactive calls. Cut-off read from the data, not from the text of the source: active = GI50 up to about 1.1 µM and inactive = higher.
Kindly supply the reported GI50 values for the records listed here.

1. CC/C=C/C(=O)CC(O)(C(F)(F)F)C(F)(F)F : > 100 µM (inactive)
2. O=c1[nH]c2cc(C(F)(F)F)ccc2nc1CBr : 8.41 µM (inactive)
3. O=C(c1c(F)c(F)c(F)c(F)c1F)c1c(F)c(F)c(F)c(F)c1F : 1.09 µM (active)

Each of the following entries comes with a recorded value; kindly state GI50 for each.
1. Cc1c(C)c(C)c(-n2c(=O)n(C)c(=O)n2-c2cc(C(C)(C)C)cc(C(C)(C)C)c2O)c(C)c1C
2. CC(C)=NOC(=O)Nc1cccc2c1OCO2

Reply text:
1. 10.5 µM (inactive)
2. > 100 µM (inactive)

====

- Tested on: A498
- methodSummary: NCI tumour cell line growth inhibition, 48 h
Active and inactive are the calls of the source. Rule as the data show it: active = GI50 up to about 1.1 µM and inactive = higher. Square brackets hold non-standard residues; d marks the D form. Peptide text beside a SMILES is read from it. pGlu = O=C1CC[C@@H](C(=O)O)N1; Thz = O=C(O)[C@@H]1CSCN1
quantityKind: GI50

1) O=C1CC[C@@H](C(=O)N2CSC[C@H]2C(=O)O)N1 [PIDOTIMOD] ([pGlu]-[Thz]-OH) : > 100 µM (inactive)
2) O=C1/C(=C/C=C/c2ccccc2)CCC1CNc1ccc(Br)cc1 (stereo unspecified) : 68.9 µM (inactive)
3) CN(C)c1ccc2nc3c(C(=O)O)cc(O)c(O)c3[o+]c2c1 : > 100 µM (inactive)

Batch request: GI50 for each of the following molecules.
1. CNC(=O)Nc1ccccc1
2. COC(=O)[C@@H]1c2c(oc3cc(CO)cc(O)c3c2=O)C=C[C@H]1O
3. N#CCN(Cc1ccccc1)[C@H]1CCC[C@]1(O)/C=C/c1ccc2c(c1)OCO2

Reply text:
["> 100 µM (inactive)", "7.26 µM (inactive)", "37.2 µM (inactive)"]

Batch request: GI50 per item, same order as input.
1. CSc1nc(O)c(C#N)c(-c2ccc(Cl)cc2)n1
2. O=C(NCCc1n[nH]c2c1C(=O)C=C(Nc1ccccc1)C2=O)OCc1ccccc1
3. O=C(CCCl)NN=C1NCCN1
4. Cn1c(=O)nc2n(-c3ccc(Cl)cc3)c3cc(Cl)ccc3nc-2c1=O
5. CCCCC1Cc2ccccc2-c2n1c1ccccc1[n+]2C (stereo unspecified)

Reply text:
74.6 µM (inactive)
> 100 µM (inactive)
> 100 µM (inactive)
14.3 µM (inactive)
23.6 µM (inactive)

====

- Test system: SK-OV-3
- methodSummary: NCI tumour cell line growth inhibition, 48 h
The source made the active and inactive calls. No stated cut-off is given here; in the data, active = GI50 up to about 1.1 µM and inactive = higher.
What GI50 was measured for each of the following?

Some compounds with known GI50 results, for comparison:
1) Nc1ncnc2c1ncn2[C@H]1C=C[C@@H](NO)C1 : > 100 µM (inactive)
2) CCOC(=O)C(=O)Nc1ccccc1OCC : > 100 µM (inactive)

Provide GI50 values for the following items, in order.
1. Nc1nc(O)c2nc(CNc3ccc(C(=O)NC(CCC(=O)O)C(=O)O)cc3)cnc2n1 (stereo not given)
2. COC(=O)[C@@]1(NC(=O)C(CC(=O)OC(C)(C)C)NC(=O)OC(C)(C)C)C[C@H]1C (stereo not given in full)
3. CC(C)C1OC(/C=C/c2ccccc2)OCC1(C)C (stereo not given)

Reply text:
> 10 µM (inactive)
> 100 µM (inactive)
48.3 µM (inactive)

Hi there! I need GI50 for each item below, if you can.
1. O=C(Nn1c(-c2ccccc2)nc2ccccc2c1=O)c1ccc(CS)cc1
2. CC(C)(C)c1cc2c3c(c1)c(=O)c1cccc4c(O)c5cccc(c2=O)c5c-3c41
3. COC(=O)c1ccccc1C1CN=NC12Cc1c(C)ccc(C)c1C2=O (stereo not given)
4. Cc1c(/C=N/NC(=S)Nc2ccc([N+](=O)[O-])cc2)c(=O)n(-c2ccccc2)n1C
5. CCN(CC)CCNc1ccc2nc(C)n3c4ccc(O)cc4c(=O)c1c23

Reply text:
1: 82.8 µM (inactive); 2: > 100 µM (inactive); 3: > 100 µM (inactive); 4: 13.5 µM (inactive); 5: 1.14 µM (inactive)
